Documented folding stability dG across a set of variants
B1: 6NMW (parent)
chain: QGDIVVALYPYDGIHPDDLSFKKGEKMKVLEEHGEWWKAKSLLTKKEGFIPSNYVAKLN

Variants of: B1
Test: folding stability dG (cDNA display proteolysis); higher = more stable
Conditions: PBS, room temperature
Just the number please, in kJ/mol, no unit attached.

Consider the reported folding stability dG for these variants:
>>> endpoint_result("E25R")
1.38
>>> endpoint_result("A56S")
13.8
>>> endpoint_result("T44L")
1.74
>>> endpoint_result("D12K")
18.1

Ask | Find the recorded folding stability dG belonging to K22R and report it.
Reply | 15.3

Ask | Find the recorded folding stability dG belonging to H15L and report it.
Reply | 12

Ask | Find the recorded folding stability dG belonging to L30I and report it.
Reply | 13.7

Ask | Find the recorded folding stability dG belonging to K28H and report it.
Reply | 12.6

Ask | Find the recorded folding stability dG belonging to E25V and report it.
Reply | -0.506

Ask | Find the recorded folding stability dG belonging to L58G and report it.
Reply | 7.71
